- Tested on: HS 578T breast
- method_notes: NCI tumour cell line growth inhibition, 48 h; in the data active = GI50 below about 0.43 µM; inactive = the rest
Select the correct class. Options are t = active, f = inactive and nothing else.

Would you please look over these solved cases?
compound | class_label
CC(=O)Nc1ccc(S(=O)(=O)NNC(=O)c2cccnc2Nc2ccc(Cl)cc2)cc1 | f
O=C1CC(=O)OC(c2ccc([N+](=O)[O-])cc2)O1 | f
C/C(=N\NC(N)=S)c1nc2ccc(Cl)cc2[nH]1 | f
COc1ccc(-c2cn[nH]c2-c2cc(OC)c3c(c2)OCCO3)cc1 | t

We next turn to a different compound, shown below.
Request: Please share the test call associated with NC(=O)c1ccc(C2C3=C(CCCC3=O)OC3=C2C(=O)c2ccccc2C3=O)cc1 (stereo not given) .
Response: f
